Parameter growth inhibition: see the listing below.
Assay: NCI Yeast Anticancer Drug Screen. Data for the sgs1 mgt1 strain (AID 161);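 note: 0% = growth of cultures given vehicle only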
Settings: S. cerevisiae sgs1 mgt1 strain, at 50.0 µM, hits give high values
Compounds without any hit were thinned out: in the full panel of roughly 79,000, 15% have a hit.
measured metric: growth inhibition (%)

>>> df
                                    compound  measured_number
 0         O=C1CN(CCN2CCCCC2)CC(=O)N2CCCCN12            -8.65
 1  COc1cc2c(cc1OC)C(c1ccccc1[N+](=O)[O-])=NCC2             29.7
 2    c1ccc(-c2nnc(SCc3nc4ccccc4[nH]3)o2)cc1             29.8
 3     COc1cccc(/C=C/S(=O)(=O)Cc2ccccc2)c1OC             4.85
 4  O=c1c(-c2ccccc2)c2oc(c1-c1ccccc1)CSCc1cccc(c1)CSC2            -3.55
 5        O=C(Nc1cccc2ccccc12)O/N=C/c1ccccn1            -11.4
 6  O=C(Nc1ccccc1O)C(O)C(O)C(O)C(O)CO (configuration not stated)             38.8
 7          CCCNc1nc2c(c(=O)n(C)c(=O)n2C)n1C             13.7
 8           O=c1[nH]c2ccccc2c(O)c1-c1ccccc1              -17
 9  O=C(COc1ccc(Cl)cc1)Nc1ccc(S(=O)(=O)O)c2ccccc12            -12.4
10             CCOC(=O)C(=O)c1c[nH]c2ccccc12             -2.5
11  C=C1C2CCC3(CCC4C5(C)CCCC4(CN(C(C)=O)C5)C3C2)C1O (configuration not stated)             10.3
12             Cc1cc(C)cc(Cc2ccc3ccccc3c2)c1            -1.15
13  COc1ccccc1C1c2cc3c(cc2OC(O)(CO)C1C(=O)O)OCO3 (configuration not stated) (tested in a mixture with another compound)            -15.3
14  O=c1[nH]c2cc([N+](=O)[O-])ccc2c2ccc(Cl)cc12             4.85
15                CC(=O)N(C)CCCCCCN(C)C(C)=O             10.7
16      CC1=CC(C)(C)N=C2SC(c3ccc(N)cc3)=NN12             3.55
17  Cc1ccc([B-]23OCC[N+]2(CNC(=O)c2ccccc2O)CCO3)cc1 (configuration not stated)              4.1
18  COc1cc2c3c(c1OC)-c1cc4c(cc1CC3(C#N)N(C(=O)c1ccccc1)CC2)OCO4 (configuration not stated)            -29.2
19  COc1ccccc1N1C(=O)C2C3c4ccccc4C(OC(C)=O)(c4ccccc43)C2C1=O (configuration not stated)             4.25
20  C1=C(N2CCOCC2)/C(=C2\SC(=Nc3ccccc3)C(=Nc3ccccc3)N2c2ccccc2)CC1            -7.65
21  O=C(Oc1c(Cl)cc([N+](=O)[O-])cc1[N+](=O)[O-])Sc1ccccc1             99.5
